# System: MDA-N
# assay: NCI tumour cell line growth inhibition, 48 h
Active and inactive are the calls of the source. No stated cut-off is given here; in the data, active = GI50 up to about 1.1 µM and inactive = higher.
Answer with one of the outcomes given here: active, inactive

Exercise: Dear colleague, could you share the recorded outcome for Cc1ccc(/N=N/C(=O)NNc2ccc(C)cc2Br)c(Br)c1 when you have a moment?
Key: inactive

Exercise: Dear colleague, could you share the recorded outcome for O=c1oc2c([N+](=O)[O-])cc([N+](=O)[O-])cc2c2ccccc12 when you have a moment?
Key: inactive

Exercise: Dear colleague, could you share the recorded outcome for CCOC(=O)NC1CN2CCC1CC2 (stereo unspecified) when you have a moment?
Key: inactive

Exercise: Dear colleague, could you share the recorded outcome for Cc1nc2n(c1/C=C1/C(=O)Nc3ccccc31)CCS2 when you have a moment?
Key: inactive

Exercise: Dear colleague, could you share the recorded outcome for CC(O)C1CC1(CO)CNc1cc(Cl)nc(N)n1 (stereo unspecified) when you have a moment?
Key: inactive

Exercise: Dear colleague, could you share the recorded outcome for Cc1ccc([N+](=O)[O-])cc1S(=O)(=O)Nc1ccc(C2=NN(S(=O)(=O)c3cc([N+](=O)[O-])ccc3C)C(c3ccccc3)C2)cc1 (stereo unspecified) when you have a moment?
Key: inactive

Exercise: Dear colleague, could you share the recorded outcome for C=CCOC(=O)Cn1cc(C)c(=O)[nH]c1=O when you have a moment?
Key: inactive

Exercise: Dear colleague, could you share the recorded outcome for COc1ccc(C2(CC(C)C)CCN(S(=O)(=O)c3ccc(C)cc3)C2)cc1OC (stereo unspecified) when you have a moment?
Key: inactive

Exercise: Dear colleague, could you share the recorded outcome for c1ccc(-c2cccc(-c3ccccn3)n2)nc1 when you have a moment?
Key: active

Exercise: Dear colleague, could you share the recorded outcome for CC1OC(OC2C(O)C(O)C(O)C(O)C2O)C(N)CC1NC(=N)C(=O)O (stereo unspecified) when you have a moment?
Key: inactive

Exercise: Dear colleague, could you share the recorded outcome for CCOc1cc(/C=N/c2nc3cc4sc(/N=C/c5ccc(O)c(OCC)c5)nc4cc3s2)ccc1O when you have a moment?
Key: inactive

Exercise: Dear colleague, could you share the recorded outcome for CCOC(=O)c1cc(C2(O)CCN(CC(C)CC)C2=O)c(-c2cc(C)no2)[nH]1 (stereo unspecified) when you have a moment?
Key: inactive

Exercise: Dear colleague, could you share the recorded outcome for CC(C)=CC[C@]12CCN(C)[C@H]1N(S(=O)(=O)c1ccccc1)c1ccccc12 when you have a moment?
Key: inactive

Exercise: Dear colleague, could you share the recorded outcome for COc1cc(S(=O)(=O)Nc2ccc(-c3csc(N4C(=O)C(Cl)C4c4ccccc4)n3)cc2)ccc1Cl (stereo unspecified) when you have a moment?
Key: inactive

Exercise: Dear colleague, could you share the recorded outcome for c1ccc(C2=Nc3nc4ccccc4n3C(c3ccccc3)C2)cc1 (stereo unspecified) when you have a moment?
Key: inactive

Exercise: Dear colleague, could you share the recorded outcome for CCOc1ccc(NC(=O)C(=O)Nn2c(N)nnc2N)cc1 when you have a moment?
Key: inactive

Exercise: Dear colleague, could you share the recorded outcome for O=C(c1c(F)c(F)c(F)c(F)c1F)N1CCN(C(=O)c2c(F)c(F)c(F)c(F)c2F)C1=S when you have a moment?
Key: inactive

Exercise: Dear colleague, could you share the recorded outcome for Nc1ccc(-c2nc3ccc(F)cc3s2)cc1 when you have a moment?
Key: inactive

Exercise: Dear colleague, could you share the recorded outcome for O=C1/C(=C/c2cccc(Cl)c2)CCCc2ccccc21 when you have a moment?
Key: inactive

Exercise: Dear colleague, could you share the recorded outcome for CN(C)/N=N/c1ccc2[nH]c(=O)[nH]c2c1 when you have a moment?
Key: inactive

Exercise: Dear colleague, could you share the recorded outcome for Cc1cc(C)c(S(=O)(=O)N(CCCN)OCCCON(CCCN)S(=O)(=O)c2c(C)cc(C)cc2C)c(C)c1 when you have a moment?
Key: inactive
